Each recorded value in this set is attributed to patent US7052705.

Provide the reported IC50 of each item.
Biological target: Neuropilin-1 (NP-1) (human, UniProt O14786)
Sequence (O14786 22-923): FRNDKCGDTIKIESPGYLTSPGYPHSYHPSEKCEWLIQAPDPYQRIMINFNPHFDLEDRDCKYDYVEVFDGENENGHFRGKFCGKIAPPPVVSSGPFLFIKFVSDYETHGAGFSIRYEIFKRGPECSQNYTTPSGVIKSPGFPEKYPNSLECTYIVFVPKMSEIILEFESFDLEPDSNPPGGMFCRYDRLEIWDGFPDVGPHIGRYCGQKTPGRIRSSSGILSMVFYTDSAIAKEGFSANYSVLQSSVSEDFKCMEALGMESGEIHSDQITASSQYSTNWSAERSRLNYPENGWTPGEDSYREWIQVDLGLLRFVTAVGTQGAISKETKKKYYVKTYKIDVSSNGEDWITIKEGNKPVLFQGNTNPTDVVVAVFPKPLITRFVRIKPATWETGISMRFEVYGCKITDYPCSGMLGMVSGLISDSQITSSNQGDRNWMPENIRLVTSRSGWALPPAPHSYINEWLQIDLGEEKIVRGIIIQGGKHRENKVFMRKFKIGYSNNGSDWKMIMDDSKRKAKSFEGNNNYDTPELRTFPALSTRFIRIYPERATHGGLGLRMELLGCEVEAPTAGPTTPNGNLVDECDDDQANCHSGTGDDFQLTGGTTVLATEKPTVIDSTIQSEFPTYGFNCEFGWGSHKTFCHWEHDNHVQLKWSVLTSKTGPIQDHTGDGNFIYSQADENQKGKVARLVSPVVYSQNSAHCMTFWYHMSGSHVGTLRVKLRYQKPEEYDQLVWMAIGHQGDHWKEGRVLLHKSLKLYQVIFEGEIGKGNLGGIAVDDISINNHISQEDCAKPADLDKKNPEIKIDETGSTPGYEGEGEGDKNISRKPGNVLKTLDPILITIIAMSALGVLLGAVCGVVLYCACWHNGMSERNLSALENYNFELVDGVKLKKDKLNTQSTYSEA
Assay: competition, Balb/c
Return type: number; implicit unit nM.

Query :: Tell us which IC50 value is on record for KGRGKRRREKQRPCDKPRR [P6V8-3N]
Result :: 254

Query :: Check the records and state IC50 for RRPKGRGKRRREAAAPSDKPRR [AS-4]
Result :: 17.8

Query :: Supply measured IC50 of VEGF165 (protein) APMAEGGGQNHHEVVKFMDVYQRSYCHPIETLVDIFQEYPDEIEYIFKPSCVPLMRCGGCCNDEGLECVPTEESNITMQIMRIKPHQGQHIGEMSFLQHNKCECRPKKDRARQENPCGPCSERRKHLFVQDPQTCKCSCKNTDSRCKARQLELNERTCRCDKPRR in your reply.
Result :: 0.158
